The measured values listed here are drawn from patent US20180303092A1.

# experimental protocol: Wetting properties: contact angle of a droplet of max load product on parafilm layer
# Assay type: physicochemical
# measurement context: 2,4-D amine salts; droplet on hydrophobic parafilm, read by eye
Listed below: Wetting Angle values for each entry.
property measured: Wetting Angle

> print(dat)
                                   compound  measured.value
1  CNCCO.O=C(O)COc1ccc(Cl)cc1Cl [2,4-D MMEA salt]           110 °
2  CC(C)CN.O=C(O)COc1ccc(Cl)cc1Cl [2,4-D MIBA salt]           155 °
3  CN(C)CCCN.O=C(O)COc1ccc(Cl)cc1Cl [2,4-D DMAPA salt]           125 °
4  C[N+](C)(C)CCO.O=C([O-])COc1ccc(Cl)cc1Cl [2,4-D Cbase salt, reference compound]           145 °
5  CNC.O=C(O)COc1ccc(Cl)cc1Cl [2,4-D DMA salt, reference compound]           130 °
6  CN(C)CCO.O=C(O)COc1ccc(Cl)cc1Cl [2,4-D DMAE salt]           105 °

----------
Reported Max Load g ae/L values are given for each entry in this list.
# experimental protocol: Maximum loading of herbicide amine salt in water (Karl-Fischer water content, HCl titration of amine)
# Format: physicochemical
# measurement context: 2,4-D amine salts; maximum loaded solution in water; acid equivalent of herbicide
property measured: Max Load g ae/L

> print(dat)
                                   compound  measured.value
1  CN(C)CCCN.O=C(O)COc1ccc(Cl)cc1Cl [2,4-D DMAPA salt]    863.5 g ae/L
2  CN(C)CCO.O=C(O)COc1ccc(Cl)cc1Cl [2,4-D DMAE salt]    624.7 g ae/L
3  CC(C)CN.O=C(O)COc1ccc(Cl)cc1Cl [2,4-D MIBA salt]    497.8 g ae/L
4  C[N+](C)(C)CCO.O=C([O-])COc1ccc(Cl)cc1Cl [2,4-D Cbase salt, reference compound]    195.0 g ae/L
5  CNC.O=C(O)COc1ccc(Cl)cc1Cl [2,4-D DMA salt, reference compound]    936.1 g ae/L
6  CNCCO.O=C(O)COc1ccc(Cl)cc1Cl [2,4-D MMEA salt]    774.3 g ae/L

----------
# experimental protocol: Maximum loading of herbicide amine salt in water (Karl-Fischer water content, HCl titration of amine)
# Type: physicochemical
# measurement context: dicamba amine salts; maximum loaded solution in water, room temperature (20° C.); acid equivalent of herbicide
Decide using Max Load g ae/L alone. Strictly below 800 g ae/L: YES. Equal to or above 800 g ae/L: NO.

> print(dat)
                                   compound  label.value
1  CN(C)CCO.COc1c(Cl)ccc(Cl)c1C(=O)O [Dicamba DMAE salt]           NO
2  COc1c(Cl)ccc(Cl)c1C(=O)O.NCCOCCO [Dicamba DGA salt, reference compound]           NO
3  COc1c(Cl)ccc(Cl)c1C(=O)[O-].C[N+](C)(C)CCO [Dicamba Cbase salt]          YES
4  CNC.COc1c(Cl)ccc(Cl)c1C(=O)O [Dicamba DMA salt, reference compound]           NO
5  CNCCO.COc1c(Cl)ccc(Cl)c1C(=O)O [Dicamba MMEA salt]           NO
6  CC(C)CN.COc1c(Cl)ccc(Cl)c1C(=O)O [Dicamba MIBA salt]          YES
